Taken from patent US20260209362A1.

Target: T1, biotinylated recombinant human IL-12Rβ2 (human, UniProt Q99665 24-622, random biotinylated)
T1 construct: Recombinant protein produced in-house; also called hIL-12RB2; human IL-12RB2
T1 sequence: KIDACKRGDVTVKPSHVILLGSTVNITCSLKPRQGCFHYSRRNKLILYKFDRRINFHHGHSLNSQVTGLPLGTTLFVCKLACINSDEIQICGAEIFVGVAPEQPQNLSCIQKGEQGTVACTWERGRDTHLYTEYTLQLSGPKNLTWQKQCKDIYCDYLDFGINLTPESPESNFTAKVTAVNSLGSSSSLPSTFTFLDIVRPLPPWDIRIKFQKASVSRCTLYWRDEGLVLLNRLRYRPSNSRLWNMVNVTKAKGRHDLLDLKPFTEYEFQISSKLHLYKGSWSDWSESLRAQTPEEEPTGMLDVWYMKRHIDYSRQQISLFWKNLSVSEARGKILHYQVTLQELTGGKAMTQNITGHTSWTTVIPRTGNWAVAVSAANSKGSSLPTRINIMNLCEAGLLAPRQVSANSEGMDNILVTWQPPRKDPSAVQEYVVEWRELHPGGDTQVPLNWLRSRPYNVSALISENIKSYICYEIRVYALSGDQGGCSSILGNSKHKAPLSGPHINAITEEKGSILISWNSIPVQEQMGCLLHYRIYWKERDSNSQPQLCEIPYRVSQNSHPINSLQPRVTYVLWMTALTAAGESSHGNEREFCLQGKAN
Experiment: ELISA, P.E., biotinylated antigen
Item-by-item account of ELISA hIL-12RB2/control

anti-IL-12Rβ2 VHH clone 3CAH32 (clone ID 20357) (VHH, not shown: small tags and cut ends, periplasmic extract) VHH: QVQLQESGGGLVQPGGSLRLSCAASGSILRINLMGWYRQVPGKQRELVAEMSTGGSTTYVDSVKGRFTISRDNAKNTVYLQMNSLKPEDTAVYYCNAKAWQLGRLENDDWGQGTQVTVSS; 4.31

Now, please, on to the next binder.
Query :: Sample anti-IL-12Rβ2 VHH clone 3CAHS124 (clone ID 20400) (VHH, not shown: small tags and cut ends, periplasmic extract) VHH: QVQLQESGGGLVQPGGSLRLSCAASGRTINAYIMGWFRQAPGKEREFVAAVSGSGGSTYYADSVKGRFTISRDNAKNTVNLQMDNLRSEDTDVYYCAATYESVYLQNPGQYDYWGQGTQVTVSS — what was its ELISA hIL-12RB2/control?
Result :: 5.67
